Counter-ions that a name gives are not always drawn.
measured.property: melting point

Below, 3 compounds whose answers are already recorded.
INSERT INTO measurements (compound, val) VALUES
  ('COC(=O)c1ccc(CNC(=O)c2ccc3n2Cc2ccccc2N(C(=O)COc2ccc(Cl)cc2C)C3)cc1 [Example 77]', '165 to 167 °C'),
  ('COc1cc(C(=O)N2Cc3ccc(C(=O)NCc4ccc(C)cc4)n3Cc3ccccc32)ccc1-c1ccccc1C [Example 38]', '179 to 180 °C'),
  ('COc1cc(C(=O)N2Cc3ccc(C(=O)NCCc4ccc(C)cc4)n3Cc3ccccc32)ccc1-c1ccccc1C [Example 48]', '190 to 192 °C');

Entry under test: Cc1ccccc1-c1ccc(C(=O)N2Cc3ccc(C(=O)NCCc4ccc(Cl)cc4)n3Cc3ccccc32)cc1C [Example 27] . Its melting point was 169 to 171 °C

Entry under test: Cc1ccccc1-c1ccc(C(=O)N2Cc3ccc(C(=O)NCCc4ccc5c(c4)OCO5)n3Cc3ccccc32)cc1C (as salt: hydrochloride) [Example 33] . Its melting point was 154 to 157 °C

Entry under test: O=C(Nc1cccc(-c2ccccc2)c1)c1ccc2n1Cc1ccccc1N(C(=O)COc1ccc(Cl)cc1)C2 [Example 100] . Its melting point was 185 to 189 °C

Entry under test: COc1cc(C(=O)N2Cc3ccc(C(=O)NCCc4ccc5c(c4)OCO5)n3Cc3ccccc32)ccc1-c1ccccc1C [Example 62] . Its melting point was 178 to 179 °C

Entry under test: Cc1ccccc1-c1ccc(C(=O)N2Cc3ccc(C(=O)NCc4ccc(N(C)C)cc4)n3Cc3ccccc32)cc1C [Example 91] . Its melting point was 154 to 155 °C

* * *

pIC50 values, listed per item
# system.tested: hFSH-R (Homo sapiens)
# Construct: expressed in transfected cells; host or cells: CHO-3D2 cells (CHO-K1 parental line)
# Sequence (P23945 18-695): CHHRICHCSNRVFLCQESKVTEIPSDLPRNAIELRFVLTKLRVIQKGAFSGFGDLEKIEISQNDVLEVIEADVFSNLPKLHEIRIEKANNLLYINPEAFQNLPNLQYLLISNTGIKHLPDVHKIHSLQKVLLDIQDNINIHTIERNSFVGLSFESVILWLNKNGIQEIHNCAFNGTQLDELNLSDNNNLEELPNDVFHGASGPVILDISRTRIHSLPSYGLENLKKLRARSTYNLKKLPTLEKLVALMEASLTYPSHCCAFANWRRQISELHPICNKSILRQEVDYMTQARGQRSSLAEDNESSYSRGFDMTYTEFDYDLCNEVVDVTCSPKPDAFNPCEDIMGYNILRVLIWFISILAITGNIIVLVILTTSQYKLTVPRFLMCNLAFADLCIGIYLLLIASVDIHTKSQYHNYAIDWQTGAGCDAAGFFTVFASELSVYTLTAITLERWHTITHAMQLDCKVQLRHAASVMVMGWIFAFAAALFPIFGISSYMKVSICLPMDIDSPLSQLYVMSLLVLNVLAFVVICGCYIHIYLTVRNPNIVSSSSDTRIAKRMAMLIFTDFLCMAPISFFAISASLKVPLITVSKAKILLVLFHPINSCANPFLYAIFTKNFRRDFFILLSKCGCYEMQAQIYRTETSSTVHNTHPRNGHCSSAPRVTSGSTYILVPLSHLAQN
# test.summary: cAMP accumulation (RIA) in CHO-3D2 cells (hFSH-R), hFSH-induced
# Assay type: cell-based
Scale explanation: pIC50 corresponds to minus log10 of a concentration expressed in moles per litre.

Below, 7 compounds whose answers are already recorded.
INSERT INTO results (compound, val) VALUES
  ('COc1ccccc1-c1ccc(C(=O)N2Cc3ccc(C(=O)NCC(c4ccccc4)N(C)C)n3Cc3ccccc32)cc1 (stereo not shown) [Example 2]', 5.92),
  ('Cc1ccccc1-c1ccc(C(=O)N2Cc3ccc(C(=O)NCc4cccc(O)c4)n3Cc3ccccc32)cc1C [Example 10]', 6.05),
  ('COc1cc(C(=O)N2Cc3ccc(C(=O)NCc4ccc5c(c4)OCCO5)n3Cc3ccccc32)ccc1-c1ccccc1C [Example 64]', 5.89),
  ('COc1cc(C(=O)N2Cc3ccc(C(=O)NCc4ccc(F)cc4)n3Cc3ccccc32)ccc1-c1ccccc1C [Example 60]', 6.40),
  ('COc1cc(C(=O)N2Cc3ccc(C(=O)NCc4ccc5c(c4)OCO5)n3Cc3ccccc32)ccc1-c1ccccc1C [Example 40]', 6.40),
  ('Cc1ccccc1-c1ccc(C(=O)N2Cc3ccc(C(=O)NCc4cccc(N)c4)n3Cc3ccccc32)cc1C [Example 34]', 5.59),
  ('Cc1ccccc1-c1ccc(C(=O)N2Cc3ccc(C(=O)NCc4cccc(C(F)(F)F)c4)n3Cc3ccccc32)cc1C [Example 16]', 4.85);

Would you kindly look at the next entry?
Entry under test: Cc1cccc(CNC(=O)c2ccc3n2Cc2ccccc2N(C(=O)c2ccc(-c4ccccc4C)c(C)c2)C3)c1 [Example 22] . Its pIC50 was 5.52

* * *

melting point values, listed per item

Below, 3 compounds whose answers are already recorded.
INSERT INTO results (compound, measured_property, val) VALUES
  ('COc1cc(C(=O)N2Cc3ccc(C(=O)NCc4ccc(C)cc4C)n3Cc3ccccc32)ccc1-c1ccccc1C [Example 46]', 'melting point', '161 to 162 °C'),
  ('COc1ccccc1-c1ccc(C(=O)N2Cc3ccc(C(=O)N[C@H](CO)c4ccccc4)n3Cc3ccccc32)cc1 [Example 5]', 'melting point', '196 to 197 °C'),
  ('COc1cc(C(=O)N2Cc3ccc(C(=O)NCc4ccc(OC(F)(F)F)cc4)n3Cc3ccccc32)ccc1-c1ccccc1C [Example 45]', 'melting point', '145 to 149 °C');

Entry under test: Cc1ccccc1-c1ccc(C(=O)N2Cc3ccc(C(=O)NCc4cccc(C(F)(F)F)c4)n3Cc3ccccc32)cc1C [Example 16] . Its melting point was 171 to 173 °C

Entry under test: COc1cc(C(=O)N2Cc3ccc(C(=O)NCC(O)c4ccccc4)n3Cc3ccccc32)ccc1-c1ccccc1C (stereo not drawn) [Example 63] . Its melting point was 214 to 215 °C

Entry under test: Cc1ccccc1-c1ccc(C(=O)N2Cc3ccc(C(=O)NCCCc4ccccc4)n3Cc3ccccc32)cc1C [Example 25] . Its melting point was 183 to 184 °C

Entry under test: O=C(NC1CCCc2ccccc21)c1ccc2n1Cc1ccccc1N(C(=O)COc1ccc(Cl)cc1)C2 (stereo not drawn) [Example 94] . Its melting point was 199 to 200 °C

Entry under test: Cc1cc(-c2ccccc2C)ccc1NC(=O)c1ccc2n1Cc1ccccc1N(C(=O)COc1ccc(Cl)cc1)C2 [Example 79] . Its melting point was 159 to 161 °C

Entry under test: Cc1ccccc1-c1ccc(C(=O)N2Cc3ccc(C(=O)NCc4ccccc4C(F)(F)F)n3Cc3ccccc32)cc1C [Example 24] . Its melting point was 126 to 128 °C

Entry under test: Cc1ccc(CNC(=O)c2ccc3n2Cc2ccccc2N(C(=O)CSc2ccc(Br)cc2)C3)cc1 [Example 83] . Its melting point was 131 to 132 °C

Entry under test: Cc1cccc(CNC(=O)c2ccc3n2Cc2ccccc2N(C(=O)c2ccc(-c4ccccc4C)c(C)c2)C3)c1 [Example 22] . Its melting point was 130 to 132 °C

Entry under test: CN(C)c1cccc(NC(=O)c2ccc3n2Cc2ccccc2N(C(=O)COc2ccc(Cl)cc2)C3)c1 [Example 101] . Its melting point was 133 to 136 °C

* * *

# system.tested: human FSH receptor (Homo sapiens)
# Construct: host or cells: CHO-K1 (CHO FSH-R 6CRE-Luc, 1D7 cells)
# test.summary: Follicle-Stimulating Hormone Receptor-Dependent Cre-Luciferase Reporter Gene Assay (CHO FSH-R 6CRE-Luc cells)
# Format: cell-based
# condition: 2-dose format; concentration in parentheses 30 μM; inhibition of the response to EC50 of FSH
Please use Condition met whenever inhibition at 30 µM is not below 60%, and Condition not met whenever it is.

INSERT INTO results (structure_smiles, class_label) VALUES
  ('COc1cc(C(=O)N2Cc3ccc(C(=O)NCCCc4ccccc4)n3Cc3ccccc32)ccc1-c1ccccc1C', 'Condition not met');

Check this molecule for inhibition at 30 µM at or above 60%: "COc1ccccc1-c1ccc(C(=O)N2Cc3ccc(C(=O)NCc4c(Cl)cccc4Oc4ccccc4)n3Cc3ccccc32)cc1"
Condition not met

Check this molecule for inhibition at 30 µM at or above 60%: "Cc1ccccc1-c1ccc(C(=O)N2Cc3ccc(C(=O)NCCc4ccc(Cl)cc4)n3Cc3ccccc32)cc1C"
Condition not met

* * *

melting point values, listed per item

Entry under test: COc1ccc(CNC(=O)c2ccc3n2Cc2ccccc2N(C(=O)c2ccc(-c4ccccc4C)c(C)c2)C3)cc1 [Example 8] . Its melting point was 127 to 128 °C

Entry under test: Cc1ccccc1-c1ccc(C(=O)N2Cc3ccc(C(=O)NCc4ccc(Cl)cc4)n3Cc3ccccc32)cc1C [Example 18] . Its melting point was 196 to 197 °C

Entry under test: Cc1ccccc1-c1ccc(C(=O)N2Cc3ccc(C(=O)NCC(c4ccccc4)c4ccccc4)n3Cc3ccccc32)cc1C [Example 90] . Its melting point was 126 to 128 °C

Entry under test: COc1cc(C(=O)N2Cc3ccc(C(=O)NCc4ccccc4C(F)(F)F)n3Cc3ccccc32)ccc1-c1ccccc1C [Example 39] . Its melting point was 165 to 167 °C
